# study-target: Brd4 BD2 (Homo sapiens (Human), UniProt O60885)
# protocol: HTRF evaluation of bromodomain inhibitors, Brd4 BD2
# Assay type: binding
# test-context: HTRF, H4ac4 peptide 600 nM, 24 h at 4° C.
Kindly state IC50 for each of the entries shown.
Answers are plain numbers, in nM.

| compound | IC50 / nM |
| --- | --- |
| C=CCCCC(=O)Nc1ccc(-c2ccc3c(c2)[C@H](Nc2ncc(Cl)cn2)[C@@H](C)[C@@H](CC)N3C(C)=O)cc1 | 2020 |
| CC[C@H]1[C@@H](C)C(n2cc(COCCOCCOCCOCCOCCOCc3cn(C4c5cc(C(=O)OC)ccc5N(C(C)=O)[C@@H](CC)[C@H]4C)nn3)nn2)c2cc(C(=O)OC)ccc2N1C(C)=O (some centres unmarked) | 95 |
| C#CCOCCOCCOCCOCCOCc1cn([C@@H]2c3cc(C(=O)OC)ccc3N(C(C)=O)[C@@H](CC)[C@H]2C)nn1 | 1300 |
| C#CCOCCOCCOCCOCCOCCOCc1cn([C@@H]2c3cc(C(=O)OC)ccc3N(C(C)=O)[C@@H](CC)[C@H]2C)nn1 | 2040 |
| CC[C@H]1[C@@H](C)[C@H](N=[N+]=[N-])c2cc(C(=O)OC)ccc2N1C(C)=O | 1880 |

Quick request: IC50 for each listed item, please.
1. C=CCCCC(=O)Nc1ccc(-c2ccc3c(c2)[C@@H](n2cc(-c4ccccc4)nn2)[C@H](C)[C@H](CC)N3C(C)=O)cc1
2. C=CCCCC(=O)Nc1ccc(-c2ccc3c(c2)[C@H](n2cc(-c4ccccc4)nn2)[C@@H](C)[C@@H](CC)N3C(C)=O)cc1
3. CC[C@H]1[C@@H](C)[C@H](NC(=O)OC(C)C)c2cc(C(=O)OC)ccc2N1C(C)=O

620
677
1880

----------
# study-target: Brd4 BD1 (Homo sapiens (Human), UniProt O60885)
# protocol: HTRF evaluation of bromodomain inhibitors, Brd4 BD1
# Type: binding
# test-context: H4ac4 peptide 50 nM, 4 h at 4° C.
Field: class. Source value: IC50. Ranges: low: < 3000 nM; moderate: ≥ 3000 nM and < 8000 nM; high: ≥ 8000 nM

The entry to classify is CC[C@H]1[C@@H](C)[C@H](n2cc(-c3ccc(C(F)(F)F)cc3)nn2)c2cc(C(=O)OC)ccc2N1C(C)=O [XN] ; which class holds it?
high

Returns: class label. Input: CC[C@H]1[C@@H](C)C(n2cc(COCCOCc3cn(C4c5cc(C(=O)OC)ccc5N(C(C)=O)[C@@H](CC)[C@H]4C)nn3)nn2)c2cc(C(=O)OC)ccc2N1C(C)=O (some centres unmarked) [XU]
low

// bin(item) where item = CCCCCc1cn([C@@H]2c3cc(C(F)(F)F)ccc3N(C(C)=O)[C@@H](CC)[C@H]2C)nn1 [YD]
high

// bin(item) where item = C=CCCCC(=O)Nc1ccc(-c2ccc3c(c2)[C@H](n2cc(CCCCC)nn2)[C@@H](C)[C@@H](CC)N3C(C)=O)cc1 [ent-XE]
high

Kindly state the category for this compound: CCCCCc1cn([C@H]2c3cc(C(=O)OC)ccc3N(C(C)=O)[C@H](CC)[C@@H]2C)nn1 [ent-XF]
moderate

Given C=CCCCC(=O)Nc1ccc(-c2ccc3c(c2)[C@@H](n2cc(-c4ccccc4)nn2)[C@H](C)[C@H](CC)N3C(C)=O)cc1 [XD] , name the class its IC50 places it in.
low

State the band of CC[C@H]1[C@@H](C)[C@H](n2cc(COCCOCCOCCOCCOCCOCC#Cc3cccc4c3CN(C3CCC(=O)NC3=O)C4=O)nn2)c2cc(C(=O)OC)ccc2N1C(C)=O (some centres unmarked) [YG]
high

Which IC50 category applies to CC[C@@H]1[C@H](C)[C@@H](N=[N+]=[N-])c2cc(C(=O)OC)ccc2N1C(C)=O (single isomer, unassigned) [ent-27] here?
high

Would you mind sorting C=CCCCC(=O)Nc1ccc(-c2ccc3c(c2)[C@@H](Nc2ncc(Cl)cn2)[C@H](C)[C@H](CC)N3C(C)=O)cc1 [XK] into the appropriate category?
moderate

----------
Exercise: state measured IC50 for each of the compounds provided.
# study-target: Brd4 BD2 (Homo sapiens (Human), UniProt O60885)
# protocol: HTRF evaluation of bromodomain inhibitors, Brd4 BD2
# Assay type: binding
# test-context: HTRF, H4ac4 peptide 600 nM, 24 h at 4° C.
Answers are plain numbers, in nM.

| compound | study-target | recorded-metric | measured-number |
| --- | --- | --- | --- |
| CC[C@H]1[C@@H](C)[C@H](n2cc(-c3ccccc3)nn2)c2cc(C(F)(F)F)ccc2N1C(C)=O [YC] | Brd4 BD2 (Homo sapiens (Human), UniProt O60885) | IC50 | 22500 |

Lab note: each compound below needs its IC50 filled in.
1. C=CCCCC(=O)Nc1ccc(-c2ccc3c(c2)[C@H](NC(=O)OC(C)C)[C@@H](C)[C@@H](CC)N3C(C)=O)cc1 [ent-XI]
2. CC[C@H]1[C@@H](C)[C@H](n2cc(COCCOCCOCc3cn(C4c5cc(C(=O)OC)ccc5N(C(C)=O)[C@@H](CC)[C@H]4C)nn3)nn2)c2cc(C(=O)OC)ccc2N1C(C)=O (stereo partly drawn) [XV]

1: 2940; 2: 2430

----------
# study-target: Brd4 BD1 (Homo sapiens (Human))
# protocol: HTRF evaluation of bromodomain inhibitors, Brd4 BD1
# Format: binding
# test-context: H4ac4 peptide 50 nM, 4 h at 4° C.
Exercise: state measured IC50 for each of the compounds provided.

| molecule | study-target | IC50 |
| --- | --- | --- |
| C#CCOCCOCCOCc1cn([C@@H]2c3cc(C(=O)OC)ccc3N(C(C)=O)[C@@H](CC)[C@H]2C)nn1 | Brd4 BD1 (Homo sapiens (Human)) | 16600 nM |
| C#CCOCCOCCOCCOCc1cn([C@@H]2c3cc(C(=O)OC)ccc3N(C(C)=O)[C@@H](CC)[C@H]2C)nn1 | Brd4 BD1 (Homo sapiens (Human)) | > 100000 nM |

# batch: return IC50 for each of the 2 compounds below
1. CCCCCc1cn([C@@H]2c3cc(C(=O)OC)ccc3N(C(C)=O)[C@@H](CC)[C@H]2C)nn1
2. C=CCCCC(=O)Nc1ccc(-c2ccc3c(c2)[C@H](NC(=O)OC(C)C)[C@@H](C)[C@@H](CC)N3C(C)=O)cc1

1. 30000 nM
2. 5740 nM

----------
# study-target: Brd4 BD2 (Homo sapiens (Human), UniProt O60885)
# protocol: HTRF evaluation of bromodomain inhibitors, Brd4 BD2
# Assay type: binding
# test-context: HTRF, H4ac4 peptide 600 nM, 24 h at 4° C.
Provide the reported log10 of IC50 of each item.
For clarity, the numbers are log10 values of IC50 expressed in nM.

Here is how some compounds turned out for log10 of IC50.
| compound | log10 of IC50 |
| --- | --- |
| CC[C@@H]1[C@H](C)[C@@H](Nc2ncc(Cl)cn2)c2cc(C(=O)OC)ccc2N1C(C)=O | 3.87 |
| C#CCOCCOCCOCCOCc1cn([C@@H]2c3cc(C(=O)OC)ccc3N(C(C)=O)[C@@H](CC)[C@H]2C)nn1 | 3.37 |
| C#CCOCCOCc1cn([C@@H]2c3cc(C(=O)OC)ccc3N(C(C)=O)[C@@H](CC)[C@H]2C)nn1 | 3.35 |
| CC[C@H]1[C@@H](C)C(n2cc(COCCOCc3cn(C4c5cc(C(=O)OC)ccc5N(C(C)=O)[C@@H](CC)[C@H]4C)nn3)nn2)c2cc(C(=O)OC)ccc2N1C(C)=O (stereo partly drawn) | 1.76 |
| C=CCCCC(=O)Nc1ccc(-c2ccc3c(c2)[C@H](N=[N+]=[N-])[C@@H](C)[C@@H](CC)N3C(C)=O)cc1 | 3.65 |

// below: log10 of IC50 requested for another compound
Read off the recorded log10 of IC50 for CC[C@H]1[C@@H](C)[C@H](n2cc(COCCOCCOCCOCc3cn(C4c5cc(C(=O)OC)ccc5N(C(C)=O)[C@@H](CC)[C@H]4C)nn3)nn2)c2cc(C(=O)OC)ccc2N1C(C)=O (stereo partly drawn)
1.98

----------
# study-target: Brd4 BD2 (Homo sapiens (Human), UniProt O60885)
# protocol: HTRF evaluation of bromodomain inhibitors, Brd4 BD2
# Assay type: binding
# test-context: ratio of the BD1 and BD2 IC50
Would you mind telling me the reported Selectivity BD2/BD1 of each entry?

Examples with their reported Selectivity BD2/BD1 follow.
| compound | recorded-metric | result |
| --- | --- | --- |
| C#CCOCCOCc1cn([C@@H]2c3cc(C(=O)OC)ccc3N(C(C)=O)[C@@H](CC)[C@H]2C)nn1 | Selectivity BD2/BD1 | 13.2 |
| C=CCCCC(=O)Nc1ccc(-c2ccc3c(c2)[C@@H](n2cc(-c4ccccc4)nn2)[C@H](C)[C@H](CC)N3C(C)=O)cc1 | Selectivity BD2/BD1 | 1.1 |
| CC[C@H]1[C@@H](C)[C@H](n2cc(COCCOCCOCCOCc3cn(C4c5cc(C(=O)OC)ccc5N(C(C)=O)[C@@H](CC)[C@H]4C)nn3)nn2)c2cc(C(=O)OC)ccc2N1C(C)=O (some centres unmarked) | Selectivity BD2/BD1 | 19.4 |
| CC[C@H]1[C@@H](C)[C@H](N=[N+]=[N-])c2cc(C(F)(F)F)ccc2N1C(C)=O | Selectivity BD2/BD1 | 8.8 |
| C=CCCCC(=O)Nc1ccc(-c2ccc3c(c2)[C@H](Nc2ncc(Cl)cn2)[C@@H](C)[C@@H](CC)N3C(C)=O)cc1 | Selectivity BD2/BD1 | 3.0 |
| CCCCCc1cn([C@@H]2c3cc(C(=O)OC)ccc3N(C(C)=O)[C@@H](CC)[C@H]2C)nn1 | Selectivity BD2/BD1 | 15.6 |
| C=CCCCC(=O)Nc1ccc(-c2ccc3c(c2)[C@H](n2cc(-c4ccccc4)nn2)[C@@H](C)[C@@H](CC)N3C(C)=O)cc1 | Selectivity BD2/BD1 | 3.4 |
| CC[C@H]1[C@@H](C)[C@H](NC(=O)OC(C)C)c2cc(C(=O)OC)ccc2N1C(C)=O | Selectivity BD2/BD1 | 12.8 |

Go through the items and report each one's Selectivity BD2/BD1.
1. CC[C@H]1[C@@H](C)[C@H](n2cc(COCCOCCOCCOCC#Cc3cccc4c3CN(C3CCC(=O)NC3=O)C4=O)nn2)c2cc(C(=O)OC)ccc2N1C(C)=O (some centres unmarked)
2. CC[C@H]1[C@@H](C)[C@H](n2cc(-c3ccc(OC)cc3)nn2)c2cc(C(=O)OC)ccc2N1C(C)=O

1. 12.7
2. 5.3

I'm hoping you can list Selectivity BD2/BD1 for every compound here, please.
1. CC[C@H]1[C@@H](C)[C@H](n2cc(C3CCCCC3)nn2)c2cc(C(=O)OC)ccc2N1C(C)=O
2. C=CCCCC(=O)Nc1ccc(-c2ccc3c(c2)[C@@H](n2cc(CCCCC)nn2)[C@H](C)[C@H](CC)N3C(C)=O)cc1
3. C=CCCCC(=O)Nc1ccc(-c2ccc3c(c2)[C@@H](Nc2ncc(Cl)cn2)[C@H](C)[C@H](CC)N3C(C)=O)cc1
4. CC[C@H]1[C@@H](C)[C@H](N=[N+]=[N-])c2cc(-c3ccc(NC(=O)CCCCCCC(=O)NO)cc3)ccc2N1C(C)=O

[6.4, 1.3, 2.4, 1.6]
